# assayed_target: 5-HT2B (Homo sapiens)
# Sequence (P41595 whole entry): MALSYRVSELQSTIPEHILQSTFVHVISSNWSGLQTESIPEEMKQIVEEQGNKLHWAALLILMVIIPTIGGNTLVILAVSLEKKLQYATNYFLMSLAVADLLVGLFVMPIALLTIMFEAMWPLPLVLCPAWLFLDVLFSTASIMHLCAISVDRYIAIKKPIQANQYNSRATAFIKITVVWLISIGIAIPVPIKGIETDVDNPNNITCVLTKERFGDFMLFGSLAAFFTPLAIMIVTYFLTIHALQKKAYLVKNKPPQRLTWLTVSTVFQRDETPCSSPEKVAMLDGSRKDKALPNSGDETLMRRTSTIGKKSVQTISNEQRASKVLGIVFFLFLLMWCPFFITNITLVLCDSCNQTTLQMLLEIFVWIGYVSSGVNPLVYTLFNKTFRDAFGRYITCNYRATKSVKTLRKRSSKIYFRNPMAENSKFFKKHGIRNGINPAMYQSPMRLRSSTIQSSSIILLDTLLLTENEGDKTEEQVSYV
reported_endpoint: Ki (nM)
Write the answer as a number in nM, unit excluded.

In: Supply Ki measured with 5-HT2B (Homo sapiens) for "CN(C)CCc1c[nH]c2ccc(I)cc12" .
Out: 98

---

# assayed_target: 5-HT1E (Homo sapiens, UniProt P28566)
# Sequence (P28566 whole entry): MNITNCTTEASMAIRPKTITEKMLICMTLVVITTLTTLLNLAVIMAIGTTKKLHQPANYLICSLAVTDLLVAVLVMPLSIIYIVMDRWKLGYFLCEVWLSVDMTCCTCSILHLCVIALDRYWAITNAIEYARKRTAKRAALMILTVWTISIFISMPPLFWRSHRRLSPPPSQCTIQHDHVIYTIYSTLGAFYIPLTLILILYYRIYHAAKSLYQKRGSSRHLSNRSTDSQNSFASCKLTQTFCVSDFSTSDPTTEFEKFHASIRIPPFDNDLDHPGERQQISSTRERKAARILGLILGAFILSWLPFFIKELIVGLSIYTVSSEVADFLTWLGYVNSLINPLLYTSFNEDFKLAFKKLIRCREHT
reported_endpoint: Ki (nM)
Write the answer as a number in nM, unit excluded.

In: Name the recorded Ki of the molecule listed here: CN(C)CCc1c[nH]c2ccc(I)cc12 [2e]
Out: 310

---

# assayed_target: 5-HT1A (Homo sapiens, UniProt P08908)
# Construct: gene HTR1A; cloned receptor, NIMH PDSP panel
# Sequence (P08908 whole entry): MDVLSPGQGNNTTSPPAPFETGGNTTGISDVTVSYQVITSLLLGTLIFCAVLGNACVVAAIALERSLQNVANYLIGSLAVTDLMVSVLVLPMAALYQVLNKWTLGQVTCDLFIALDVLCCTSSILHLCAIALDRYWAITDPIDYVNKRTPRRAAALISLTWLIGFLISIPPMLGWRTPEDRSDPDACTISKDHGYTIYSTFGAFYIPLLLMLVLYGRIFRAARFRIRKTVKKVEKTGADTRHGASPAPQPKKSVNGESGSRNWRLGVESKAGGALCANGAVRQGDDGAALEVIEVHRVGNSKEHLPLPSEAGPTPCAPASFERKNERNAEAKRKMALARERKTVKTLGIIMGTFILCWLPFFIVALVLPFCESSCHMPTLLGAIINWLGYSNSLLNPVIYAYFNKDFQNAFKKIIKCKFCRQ
# procedure_text: receptor binding assay (NIMH PDSP)
reported_endpoint: Ki (µM)
Write the answer as a number in µM, unit excluded.

In: Name the recorded Ki of the compound listed here: "CN(C)CCc1c[nH]c2ccc(I)cc12"
Out: 0.13
